Target Or Test System: Menin-MLL (Homo sapiens)
Construct: His-Menin (M1-L615 end); purchased BIORTUS BP9210
Sequence (O00255 1-615 isoform O00255-1): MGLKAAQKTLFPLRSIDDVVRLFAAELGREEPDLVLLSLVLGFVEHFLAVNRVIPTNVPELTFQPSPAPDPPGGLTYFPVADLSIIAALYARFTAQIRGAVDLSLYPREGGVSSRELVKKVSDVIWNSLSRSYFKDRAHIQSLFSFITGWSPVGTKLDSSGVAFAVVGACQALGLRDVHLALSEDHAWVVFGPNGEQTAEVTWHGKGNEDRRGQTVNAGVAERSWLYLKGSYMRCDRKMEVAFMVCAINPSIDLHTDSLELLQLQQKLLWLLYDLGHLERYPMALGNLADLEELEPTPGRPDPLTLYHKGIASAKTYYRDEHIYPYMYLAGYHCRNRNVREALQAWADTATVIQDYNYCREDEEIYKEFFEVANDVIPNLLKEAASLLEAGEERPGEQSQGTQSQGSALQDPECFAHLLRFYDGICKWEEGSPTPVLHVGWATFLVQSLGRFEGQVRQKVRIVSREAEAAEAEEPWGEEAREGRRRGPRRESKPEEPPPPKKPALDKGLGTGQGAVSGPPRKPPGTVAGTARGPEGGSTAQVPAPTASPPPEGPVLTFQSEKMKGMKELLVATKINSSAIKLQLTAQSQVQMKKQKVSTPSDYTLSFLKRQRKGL
Protocol Text: Inhibitory activity against Menin-MLL binding (fluorescence polarization)
Run Parameters: fluorescence polarization; 150 nM His-Menin, 15 nM FITC-MLL; 25°C for 60 min; read-out: Menin-MLL IC50
Each item that follows carries a reported log10 IC50.
Quantity: log10 IC50 (log10 of the value in nM)

Compound	Target Or Test System	Quantity	Result
CC(=O)N1CCC([C@@H](C)N2CC(c3cc(-c4ccc(F)cc4C(=O)N4CCOC[C@H]4C)c4c(F)nc(C)n4c3)C2)CC1 [Example 257-1]	Menin-MLL (Homo sapiens)	log10 IC50	2.12
Cc1nc(F)c2c(-c3ccc(F)cc3C(=O)N3[C@H](C)COC[C@H]3C)cc(C3CN(CC4CCN(C(=O)C5CCOCC5)CC4)C3)cn12 [Example 221]	Menin-MLL (Homo sapiens)	log10 IC50	1.43
Cc1nc(F)c2c(-c3ccc(F)cc3C(=O)N3CCOC[C@H]3C)cc(C3CN([C@@H](C)C4CCN(C(=O)CC(F)F)CC4)C3)cn12 [Example 304]	Menin-MLL (Homo sapiens)	log10 IC50	0.90
Cc1nc(F)c2c(-c3ccc(F)cc3C(=O)N3CCOC[C@H]3C)cc(C3CN(C(CC[C@H]4CNCCO4)C(C)C)C3)cn12 (stereo partly shown) [Example 244]	Menin-MLL (Homo sapiens)	log10 IC50	1.23
Cc1nc(F)c2c(-c3ccc(F)cc3C(=O)N3CCOC[C@H]3C)cc(C3CN(C[C@H]4CC[C@@H](c5ncno5)CC4)C3)cn12 [Example 207-2]	Menin-MLL (Homo sapiens)	log10 IC50	2.43
COC[C@@H]1CN(CCC[C@@H](C(C)C)N2CC(c3cc(-c4ccc(F)cc4C(=O)N(C(C)C)C(C)C)c4cnc(C)n4c3)C2)CCN1 [Example 505-1]	Menin-MLL (Homo sapiens)	log10 IC50	1.34
CCN(C(=O)c1cc(F)ccc1-c1cc(C2CN([C@H](CCCN3CCNCC3)C(C)C)C2)cn2c(C)ncc12)C(C)C [Example 472]	Menin-MLL (Homo sapiens)	log10 IC50	0.18
CCN(C(=O)c1cc(F)ccc1-c1cc(C2CN([C@H](CCCN3CCN(CC(=O)N(C)C)CC3)C(C)C)C2)cn2c(C)ncc12)C(C)C [Example 473]	Menin-MLL (Homo sapiens)	log10 IC50	0.04
CNC(=O)N1CCC([C@@H](C)N2CC(c3cc(-c4ccc(F)cc4C(=O)N4CCOC[C@H]4C)c4c(F)nc(C)n4c3)C2)CC1 [Example 264-1]	Menin-MLL (Homo sapiens)	log10 IC50	2.06
CCN(C(=O)c1cc(F)ccc1-c1cc(N2CCN(C(=O)[C@@H]3CCCNC3)CC2)cn2c(C)ncc12)C(C)C [Example 124]	Menin-MLL (Homo sapiens)	log10 IC50	1.91
CCN(C(=O)c1cc(F)ccc1-c1cc(C2CN([C@H](CCCN3CC4CC(C3)N4C)C(C)C)C2)cn2c(C)ncc12)C(C)C [Example 392]	Menin-MLL (Homo sapiens)	log10 IC50	0.30
CCN(C(=O)c1cc(F)ccc1-c1cc(C2CN(C(COC)C(C)C)C2)cn2c(C)ncc12)C(C)C (stereo not shown) [Example 414]	Menin-MLL (Homo sapiens)	log10 IC50	1.07
Cc1nc(F)c2c(-c3ccc(F)cc3C(=O)N3CCOC[C@H]3C)cc(C3CN([C@H](CCCN4CCN(C)CC4)C(C)C)C3)cn12 [Example 275]	Menin-MLL (Homo sapiens)	log10 IC50	0.51
COCCN(C)CCCC(C(C)C)N1CC(c2cc(-c3ccc(F)cc3C(=O)N(CC(F)F)C(C)C)c3cnc(C)n3c2)C1 (stereo not shown) [Example 149]	Menin-MLL (Homo sapiens)	log10 IC50	0.93
CCN(C(=O)c1cc(F)ccc1-c1cc(C2CN([C@H](CCCN3CCN(C(=O)OC(C)(C)C)CC3)C(C)C)C2)cn2c(C)ncc12)C(C)C [Example 454-1]	Menin-MLL (Homo sapiens)	log10 IC50	0.89
COCCC(=O)N1CCC(CN2CC(c3cc(-c4ccc(F)cc4C(=O)N4[C@H](C)COC[C@H]4C)c4c(F)nc(C)n4c3)C2)CC1 [Example 223]	Menin-MLL (Homo sapiens)	log10 IC50	1.18
COCC1CN(CCC[C@H](C(C)C)N2CC(c3cc(-c4ccc(F)cc4C(=O)N4CCOC[C@H]4C)c4cnn(C)c4c3)C2)C1 [Example 183-2]	Menin-MLL (Homo sapiens)	log10 IC50	1.07
CCN(C(=O)c1cc(F)ccc1-c1cc(C2CN([C@H](CCCN3CCN(C[C@H](O)CO)CC3)C(C)C)C2)cc2c1cnn2C)C(C)C [Example 412]	Menin-MLL (Homo sapiens)	log10 IC50	0.83
CCN(C(=O)c1cc(F)ccc1-c1cc(C2CN(C(CCCN3CCN(CCO)CC3)C(C)C)C2)cc2c(C)ncn12)C(C)C (stereo not shown) [Example 466]	Menin-MLL (Homo sapiens)	log10 IC50	0.46
Cc1nc(F)c2c(-c3ccc(F)cc3C(=O)N3CCOC[C@H]3C)cc(C3CN([C@H](CCCN4CCC[C@H](O)C4)C(C)C)C3)cn12 [Example 293]	Menin-MLL (Homo sapiens)	log10 IC50	0.49
Cc1nc(F)c2c(-c3ccc(F)cc3C(=O)N3CCOC[C@H]3C)cc(C3CN(CC4CCN(C(=O)C(F)F)CC4)C3)cn12 [Example 268]	Menin-MLL (Homo sapiens)	log10 IC50	1.51
CO[C@@H]1CN(CCC[C@H](C(C)C)N2CC(c3cc(-c4ccc(F)cc4C(=O)N4CCOC[C@H]4C)c4c(F)nc(C)n4c3)C2)C[C@H]1O [Example 291-1]	Menin-MLL (Homo sapiens)	log10 IC50	0.78
C[C@@H]1COCCN1C(=O)c1cc(F)ccc1-c1cc(C2CN(CC3CCN(C(=O)C4(O)CC4)CC3)C2)cc2c1cnn2C [Example 171]	Menin-MLL (Homo sapiens)	log10 IC50	1.93
CCN1CCN(CCC[C@H](C(C)C)N2CC(c3cc(-c4ccc(F)cc4C(=O)N4CCOC[C@H]4C)c4c(F)nc(C)n4c3)C2)CC1 [Example 277]	Menin-MLL (Homo sapiens)	log10 IC50	0.52
CC[C@@H](C1CCN(C(C)=O)CC1)N1CC(c2cc(-c3ccc(F)cc3C(=O)N3CCOC[C@H]3C)c3c(F)nc(C)n3c2)C1 [Example 280-1]	Menin-MLL (Homo sapiens)	log10 IC50	1.18
